test system: ES7 (Ewing's Sarcoma); test: combination Emax (second highest fraction inhibited in the dose matrix, 72 h); higher = more inhibition; extreme values may be limits of the assay
quantityName: combination Emax

| compound | recordedMeasurement |
| --- | --- |
| CCc1c2c(nc3ccc(O)cc13)-c1cc3c(c(=O)n1C2)COC(=O)[C@]3(O)CC [SN-38] + O=C(c1cc(Cc2n[nH]c(=O)c3ccccc23)ccc1F)N1CCN(C(=O)C2CC2)CC1 [Olaparib] (first compound max 0.3 µM, 7x7, partner max 10 µM) | 1 |
| Cn1cnc2c(F)c(Nc3ccc(Br)cc3Cl)c(C(=O)NOCCO)cc21 [Selumetinib] + C[C@@H]1COCCN1C2=NC(=NC(=C2)C3(CC3)[S@](=N)(=O)C)C4=C5C=CNC5=NC=C4 [AZD6738] (first compound max 10 µM, 7x7, partner max 10 µM) | 0.777 |
| O=C(c1cc(Cc2n[nH]c(=O)c3ccccc23)ccc1F)N1CCN(C(=O)C2CC2)CC1 [Olaparib] + Cc1c2c(nn1C)CSCc1cc(n(C)n1)CSc1cc(c3ccccc3c1)OCCCc1c(C(=O)O)n(C)c3c-2c(Cl)ccc13 [AZD5991] (first compound max 10 µM, 7x7, partner max 1 µM) | 0.942 |
| Cc1c2c(nn1C)CSCc1cc(n(C)n1)CSc1cc(c3ccccc3c1)OCCCc1c(C(=O)O)n(C)c3c-2c(Cl)ccc13 [AZD5991] + C[C@@H](Nc1cc(F)cc(F)c1)c1cc(C(=O)N(C)C)cc2c(=O)cc(N3CCOCC3)oc12 [AZD8186] (first compound max 1 µM, 7x7, partner max 3 µM) | 0.95 |

====

test system: SW1088 (Low Grade Glioma); assay: combination Emax (second highest fraction inhibited in the dose matrix, 72 h); higher = more inhibition; extreme values may be limits of the assay
# combination Emax per entry

| molecule | targetUnderTest | combination Emax |
| --- | --- | --- |
| N#Cc1cnc(Nc2cc(NC[C@H]3CNCCO3)c(C(F)(F)F)cn2)cn1 [SRA737] + Nc1ccn([C@@H]2O[C@H](CO)[C@@H](O)C2(F)F)c(=O)n1 [Gemcitabine] (first compound max 10 µM, 7x7, partner max 0.3 µM) | SW1088 (Low Grade Glioma) | 0.626 |
| CN(C)CCCOc1ccc(-c2ccc3ncc4c(c3c2)n(C2CCOCC2)c(=O)n4C)cn1 [AZD0156] + C=CCn1c(=O)c2cnc(Nc3ccc(N4CCN(C)CC4)cc3)nc2n1-c1cccc(C(C)(C)O)n1 [AZD1775] (first compound max 1 µM, partner max 1 µM) | SW1088 (Low Grade Glioma) | 0.425 |
| Cc1c2c(nn1C)CSCc1cc(n(C)n1)CSc1cc(c3ccccc3c1)OCCCc1c(C(=O)O)n(C)c3c-2c(Cl)ccc13 [AZD5991] + CN(C)CCCOc1ccc(-c2ccc3ncc4c(c3c2)n(C2CCOCC2)c(=O)n4C)cn1 [AZD0156] (first compound max 1 µM, 7x7, partner max 1 µM) | SW1088 (Low Grade Glioma) | 0.242 |

====

system: NCI-H1299 (Non-Small Cell Lung Carcinoma); assay: combination Emax (second highest fraction inhibited in the dose matrix, 72 h); higher = more inhibition; extreme values may be limits of the assay

| molecule | combination Emax |
| --- | --- |
| CN(C)CCCOc1ccc(-c2ccc3ncc4c(c3c2)n(C2CCOCC2)c(=O)n4C)cn1 [AZD0156] + C[C@@H]1COCCN1C2=NC(=NC(=C2)C3(CC3)[S@](=N)(=O)C)C4=C5C=CNC5=NC=C4 [AZD6738] (first compound max 1 µM, 7x7, partner max 10 µM) | 0.746 |
| COc1cccc(OCCCN)c1-c1cc(Nc2cnc(C#N)cn2)n[nH]1 [Prexasertib] + Cc1cc2ncnn2cc1Nc1ncc2c(n1)n(C1CCOCC1)c(=O)n2C [AZD7648] (first compound max 1 µM, 7x7, partner max 10 µM) | 0.711 |
| CN(C)CCCOc1ccc(-c2ccc3ncc4c(c3c2)n(C2CCOCC2)c(=O)n4C)cn1 [AZD0156] + C=CCn1c(=O)c2cnc(Nc3ccc(N4CCN(C)CC4)cc3)nc2n1-c1cccc(C(C)(C)O)n1 [AZD1775] (first compound max 1 µM, partner max 1 µM) | 0.742 |
| C=CCn1c(=O)c2cnc(Nc3ccc(N4CCN(C)CC4)cc3)nc2n1-c1cccc(C(C)(C)O)n1 [AZD1775] + Nc1ccn([C@@H]2O[C@H](CO)[C@@H](O)C2(F)F)c(=O)n1 [Gemcitabine] (first compound max 1 µM, partner max 0.3 µM) | 0.818 |

====

test system: SW756 (Cervical Carcinoma); test: combination Emax (second highest fraction inhibited in the dose matrix, 72 h); higher = more inhibition; extreme values may be limits of the assay
Our labelling divides records by combination Emax into ranges: bin 1 = under 0.3, bin 2 = from 0.3 up to 0.4, bin 3 = 0.4 and over

| molecule | label |
| --- | --- |
| NC1(C(=O)N[C@@H](CCO)c2ccc(Cl)cc2)CCN(c2ncnc3[nH]ccc23)CC1 [Capivasertib] + CCN(CCO)CCCOc1ccc2c(Nc3cc(CC(=O)Nc4cccc(F)c4)[nH]n3)ncnc2c1 [AZD2811] (first compound max 10 µM, 7x7, partner max 1 µM) | bin 1 |
| COc1cccc(OCCCN)c1-c1cc(Nc2cnc(C#N)cn2)n[nH]1 [Prexasertib] + O=C(c1cc(Cc2n[nH]c(=O)c3ccccc23)ccc1F)N1CCN(C(=O)C2CC2)CC1 [Olaparib] (first compound max 1 µM, 7x7, partner max 10 µM) | bin 3 |
| CC1(C)CCC(CN2CCN(c3ccc(C(=O)NS(=O)(=O)c4ccc(NCC5CCOCC5)c([N+](=O)[O-])c4)c(Oc4cnc5[nH]ccc5c4)c3)CC2)=C(c2ccc(Cl)cc2)C1 [Venetoclax] + C=CCn1c(=O)c2cnc(Nc3ccc(N4CCN(C)CC4)cc3)nc2n1-c1cccc(C(C)(C)O)n1 [AZD1775] (first compound max 1 µM, partner max 1 µM) | bin 3 |
| COc1cccc(OCCCN)c1-c1cc(Nc2cnc(C#N)cn2)n[nH]1 [Prexasertib] + Cc1cc2ncnn2cc1Nc1ncc2c(n1)n(C1CCOCC1)c(=O)n2C [AZD7648] (first compound max 1 µM, 7x7, partner max 10 µM) | bin 3 |
| CS(=O)(=O)CCNCc1ccc(-c2ccc3ncnc(Nc4ccc(OCc5cccc(F)c5)c(Cl)c4)c3c2)o1 [Lapatinib] + C[C@@H](Oc1cc(-c2cnn(C3CCNCC3)c2)cnc1N)c1c(Cl)ccc(F)c1Cl [Crizotinib] (first compound max 10 µM, 7x7, partner max 10 µM) | bin 2 |
| CCN(CCO)CCCOc1ccc2c(Nc3cc(CC(=O)Nc4cccc(F)c4)[nH]n3)ncnc2c1 [AZD2811] + O=C(c1cc(Cc2n[nH]c(=O)c3ccccc23)ccc1F)N1CCN(C(=O)C2CC2)CC1 [Olaparib] (first compound max 1 µM, 7x7, partner max 10 µM) | bin 1 |
| CC1(C)CCC(CN2CCN(c3ccc(C(=O)NS(=O)(=O)c4ccc(NCC5CCOCC5)c([N+](=O)[O-])c4)c(Oc4cnc5[nH]ccc5c4)c3)CC2)=C(c2ccc(Cl)cc2)C1 [Venetoclax] + C[C@@H]1COCCN1C2=NC(=NC(=C2)C3(CC3)[S@](=N)(=O)C)C4=C5C=CNC5=NC=C4 [AZD6738] (first compound max 1 µM, 7x7, partner max 10 µM) | bin 2 |
| CC(=O)c1c(C)c2cnc(Nc3ccc(N4CCNCC4)cn3)nc2n(C2CCCC2)c1=O [Palbociclib] + Cn1cnc2c(F)c(Nc3ccc(Br)cc3Cl)c(C(=O)NOCCO)cc21 [Selumetinib] (first compound max 10 µM, 7x7, partner max 10 µM) | bin 2 |
| COc1cccc(OCCCN)c1-c1cc(Nc2cnc(C#N)cn2)n[nH]1 [Prexasertib] + CN(C)CCCOc1ccc(-c2ccc3ncc4c(c3c2)n(C2CCOCC2)c(=O)n4C)cn1 [AZD0156] (first compound max 1 µM, 7x7, partner max 1 µM) | bin 2 |
| COc1cccc(OCCCN)c1-c1cc(Nc2cnc(C#N)cn2)n[nH]1 [Prexasertib] + C=CCn1c(=O)c2cnc(Nc3ccc(N4CCN(C)CC4)cc3)nc2n1-c1cccc(C(C)(C)O)n1 [AZD1775] (first compound max 1 µM, partner max 1 µM) | bin 3 |
| CC(=O)Nc1cccc(-n2c(=O)n(C3CC3)c(=O)c3c(Nc4ccc(I)cc4F)n(C)c(=O)c(C)c32)c1 [Trametinib] + Cc1nc(-c2cn3c(n2)-c2ccc(-c4cnn(C(C)(C)C(N)=O)c4)cc2OCC3)n(C(C)C)n1 [Taselisib] (first compound max 1 µM, 7x7, partner max 10 µM) | bin 3 |
| C=CCn1c(=O)c2cnc(Nc3ccc(N4CCN(C)CC4)cc3)nc2n1-c1cccc(C(C)(C)O)n1 [AZD1775] + C[C@@H]1COCCN1C2=NC(=NC(=C2)C3(CC3)[S@](=N)(=O)C)C4=C5C=CNC5=NC=C4 [AZD6738] (first compound max 1 µM, partner max 10 µM) | bin 3 |
